# TARGET: UniProt:P00772
# ASSAY OVERVIEW: Inhibition constant KI (Dixon method) on pancreatic elastase, hydrolysis of succinyl-tri-L-alanine-paranitroanilide
# Type: biochemical
# COND: 25° C., TRIS 0.2 M buffer, pH 8; absence of any organic solvent; read-out: K T^ (a) pancreatic
pKi: −log10 of the molar value. Where a name gives a salt, the structure may show the parent alone. Peptide text beside a SMILES is read from it. * marks the point of attachment. Tfa = O=C(C(F)(F)F)*; NHPh = c1ccc(N*)cc1
PROPERTY: pKi

>  <MOLECULE>
COc1ccc(NC(=O)[C@H](C)NC(=O)[C@H](C)NC(=O)C(F)(F)F)cc1 [compound 7]

>  <PROPERTY>
pKi

>  <VALUE OBSERVED>
6.54

$$$$
>  <MOLECULE>
CC(=O)c1ccc(NC(=O)[C@H](C)NC(=O)[C@H](CCCCN)NC(=O)C(F)(F)F)cc1 [compound 16]

>  <PROPERTY>
pKi

>  <VALUE OBSERVED>
7.49

$$$$
>  <MOLECULE>
C[C@H](NC(=O)[C@H](C)NC(=O)C(F)(F)F)C(=O)Nc1ccccc1 [compound 1] (Tfa-Ala-Ala-NHPh)

>  <PROPERTY>
pKi

>  <VALUE OBSERVED>
6.60

$$$$
>  <MOLECULE>
CC(C)c1ccc(NC(=O)[C@H](C)NC(=O)[C@H](CCCCN)NC(=O)C(F)(F)F)cc1 [compound 14]

>  <PROPERTY>
pKi

>  <VALUE OBSERVED>
7.30

$$$$
>  <MOLECULE>
CC(NC(=O)C(F)(F)F)C(=O)NC(C(=O)Nc1ccccc1)C(F)(F)F (mixture of isomers) [compound 17]

>  <PROPERTY>
pKi

>  <VALUE OBSERVED>
6.57

$$$$
>  <MOLECULE>
C[C@H](NC(=O)C(F)(F)F)C(=O)N[C@@H](CCCCN)C(=O)Nc1ccc(C(F)(F)F)cc1 [compound 19]

>  <PROPERTY>
pKi

>  <VALUE OBSERVED>
6.40

$$$$

---

# TARGET: leucocytal elastase (Homo sapiens)
# Construct: This latter was purified according to the Travis method
# ASSAY OVERVIEW: I50 on leucocytal elastase, hydrolysis of succinyl-tri-alanine-paranitroanilide at 10^-3 M
# COND: 25° C., TRIS 0.2 M buffer, pH 8; substrate 10^-3 M; in the presence of 50 % dimethylformamide (footnote); read-out: T 50^ (b) leucocytal
# From the text: This latter was purified according to the Travis method (Baugh, R. J. and Travis, J. (1976), Biochemistry, 15, 4, 836). […]
Structures can show the parent of a compound that is named as a salt. Peptide text beside a SMILES is read from it. * marks the point of attachment. Tfa = O=C(C(F)(F)F)*; NHPh = c1ccc(N*)cc1
Labelling: IC50 reported below 200 µM becomes criterion met; at or above becomes criterion not met.

>  <COMPOUND>
C[C@H](NC(=O)[C@H](C)NC(=O)C(F)(F)F)C(=O)Nc1cccc([N+](=O)[O-])c1

>  <TARGET>
leucocytal elastase (Homo sapiens)

>  <GROUP>
criterion met

$$$$
>  <COMPOUND>
CC(C)c1ccc(NC(=O)[C@H](C)NC(=O)[C@H](C)NC(=O)C(F)(F)F)cc1

>  <TARGET>
leucocytal elastase (Homo sapiens)

>  <GROUP>
criterion met

$$$$
>  <COMPOUND>
C[C@H](NC(=O)[C@H](CCCCN)NC(=O)C(F)(F)F)C(=O)Nc1ccccc1 [compound 11] (Tfa-Lys-Ala-NHPh)

>  <TARGET>
leucocytal elastase (Homo sapiens)

>  <GROUP>
criterion met

$$$$
>  <COMPOUND>
CC(NC(=O)C(F)(F)F)C(=O)NC(C(=O)Nc1ccccc1)C(F)(F)F (mixture of isomers)

>  <TARGET>
leucocytal elastase (Homo sapiens)

>  <GROUP>
criterion not met

$$$$
>  <COMPOUND>
COc1ccc(NC(=O)[C@H](C)NC(=O)[C@H](C)NC(=O)C(F)(F)F)cc1

>  <TARGET>
leucocytal elastase (Homo sapiens)

>  <GROUP>
criterion met

$$$$
>  <COMPOUND>
C[C@H](NC(=O)[C@H](C)NC(=O)C(F)(F)F)C(=O)Nc1ccc(C#N)cc1

>  <TARGET>
leucocytal elastase (Homo sapiens)

>  <GROUP>
criterion met

$$$$

---

# TARGET: leucocytal elastase (Homo sapiens, UniProt P08246)
# Construct: This latter was purified according to the Travis method
# Sequence (P08246 30-267): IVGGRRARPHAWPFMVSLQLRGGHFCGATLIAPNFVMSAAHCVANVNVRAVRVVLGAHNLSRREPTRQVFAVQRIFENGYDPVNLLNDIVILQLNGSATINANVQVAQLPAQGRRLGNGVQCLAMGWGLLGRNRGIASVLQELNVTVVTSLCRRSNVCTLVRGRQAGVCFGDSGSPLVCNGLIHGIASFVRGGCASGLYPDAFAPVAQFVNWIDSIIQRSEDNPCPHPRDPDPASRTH
# ASSAY OVERVIEW: I50 on leucocytal elastase, hydrolysis of succinyl-tri-alanine-paranitroanilide at 10^-3 M
# COND: 25° C., TRIS 0.2 M buffer, pH 8; substrate 10^-3 M; in the presence of 50 % dimethylformamide (footnote); read-out: T 50^ (b) leucocytal
PROPERTY: IC50 (µM)

>  <CPD SMILES>
CC(C)c1ccc(NC(=O)[C@H](C)NC(=O)[C@H](CCCCN)NC(=O)C(F)(F)F)cc1

>  <READING UNIT>
µM

>  <VALUE OBSERVED>
5.7

$$$$
>  <CPD SMILES>
Cc1ccc(NC(=O)[C@H](C)NC(=O)[C@H](CCCCN)NC(=O)C(F)(F)F)cc1

>  <READING UNIT>
µM

>  <VALUE OBSERVED>
50

$$$$
>  <CPD SMILES>
C[C@H](NC(=O)[C@H](CCCCN)NC(=O)C(F)(F)F)C(=O)Nc1ccc(C(F)(F)F)cc1

>  <READING UNIT>
µM

>  <VALUE OBSERVED>
35

$$$$
>  <CPD SMILES>
CC(=O)c1ccc(NC(=O)[C@H](C)NC(=O)[C@H](CCCCN)NC(=O)C(F)(F)F)cc1

>  <READING UNIT>
µM

>  <VALUE OBSERVED>
9

$$$$

---

# TARGET: leucocytal elastase (Homo sapiens)
# Construct: This latter was purified according to the Travis method
# ASSAY OVERVIEW: I50 on leucocytal elastase, hydrolysis of succinyl-tri-alanine-paranitroanilide at 10^-3 M
# COND: 25° C., TRIS 0.2 M buffer, pH 8; substrate 10^-3 M; in the presence of 50 % dimethylformamide (footnote); read-out: T 50^ (b) leucocytal
pIC50: −log10 of the molar value. Where a name gives a salt, the structure may show the parent alone. Square brackets hold non-standard residues; d marks the D form. Peptide text beside a SMILES is read from it. * marks the point of attachment. 4Abz = Nc1ccc(C(=O)O)cc1; Tfa = O=C(C(F)(F)F)*; NHPh = c1ccc(N*)cc1
Everything with pIC50 lower than 4 is Not fulfilled; everything else, including exactly 4, is Fulfilled.

>  <COMPOUND>
C[C@H](NC(=O)[C@H](C)NC(=O)C(F)(F)F)C(=O)Nc1ccccc1 [compound 1] (Tfa-Ala-Ala-NHPh)

>  <GROUP>
Not fulfilled

$$$$
>  <COMPOUND>
C[C@H](NC(=O)[C@H](C)NC(=O)C(F)(F)F)C(=O)Nc1ccc(C(F)(F)F)cc1 [compound 5]

>  <GROUP>
Fulfilled

$$$$
>  <COMPOUND>
C[C@H](NC(=O)C(F)(F)F)C(=O)N[C@@H](CCCCN)C(=O)Nc1ccc(C(F)(F)F)cc1 [compound 19]

>  <GROUP>
Not fulfilled

$$$$
>  <COMPOUND>
C[C@H](NC(=O)[C@H](C)NC(=O)C(F)(F)F)C(=O)Nc1ccc(C(=O)O)cc1 [compound 10] (Tfa-Ala-Ala-[4Abz]-OH)

>  <GROUP>
Not fulfilled

$$$$

---

# TARGET: porcine pancreatic elastase (Sus scrofa, UniProt P00772)
# Sequence (P00772 27-266): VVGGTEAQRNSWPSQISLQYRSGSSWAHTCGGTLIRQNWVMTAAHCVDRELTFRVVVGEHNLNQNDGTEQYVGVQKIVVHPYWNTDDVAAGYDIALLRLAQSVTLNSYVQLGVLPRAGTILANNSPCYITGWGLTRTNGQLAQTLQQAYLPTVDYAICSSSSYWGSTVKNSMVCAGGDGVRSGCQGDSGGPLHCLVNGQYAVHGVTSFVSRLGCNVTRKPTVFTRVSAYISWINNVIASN
# ASSAY OVERVIEW: Inhibition constant KI (Dixon method) on pancreatic elastase, hydrolysis of succinyl-tri-L-alanine-paranitroanilide
# Format: biochemical
# COND: 25° C., TRIS 0.2 M buffer, pH 8; absence of any organic solvent; read-out: K T^ (a) pancreatic
Structures can show the parent of a compound that is named as a salt. Square brackets hold non-standard residues; d marks the D form. Peptide text beside a SMILES is read from it. * marks the point of attachment. 4Abz = Nc1ccc(C(=O)O)cc1; Tfa = O=C(C(F)(F)F)*; NHPh = c1ccc(N*)cc1
PROPERTY: Ki (nM)

>  <MOLECULE>
C[C@H](NC(=O)[C@H](C)NC(=O)C(F)(F)F)C(=O)Nc1ccc(Cl)cc1

>  <VALUE OBSERVED>
110

$$$$
>  <MOLECULE>
C[C@H](NC(=O)[C@H](C)NC(=O)C(F)(F)F)C(=O)Nc1cccc(C(F)(F)F)c1

>  <VALUE OBSERVED>
800

$$$$
>  <MOLECULE>
C[C@H](NC(=O)[C@H](CCCCN)NC(=O)C(F)(F)F)C(=O)Nc1ccccc1 [compound 11] (Tfa-Lys-Ala-NHPh)

>  <VALUE OBSERVED>
40

$$$$
>  <MOLECULE>
C[C@H](NC(=O)[C@H](C)NC(=O)C(F)(F)F)C(=O)Nc1ccc(C(=O)O)cc1 [compound 10] (Tfa-Ala-Ala-[4Abz]-OH)

>  <VALUE OBSERVED>
200

$$$$
>  <MOLECULE>
C[C@H](NC(=O)[C@H](C)NC(=O)C(F)(F)F)C(=O)Nc1ccc(C(F)(F)F)cc1

>  <VALUE OBSERVED>
90

$$$$
>  <MOLECULE>
CC(C)c1ccc(NC(=O)[C@H](C)NC(=O)[C@H](C)NC(=O)C(F)(F)F)cc1

>  <VALUE OBSERVED>
550

$$$$
>  <MOLECULE>
C[C@H](NC(=O)[C@H](CCCCN)NC(=O)C(F)(F)F)C(=O)Nc1ccc(C(F)(F)F)cc1

>  <VALUE OBSERVED>
25

$$$$
